Test system: PCSK9 mRNA
protocol.details: PCSK9 siRNA screening in HepG2 cells (lipofectamine 2000 transfection, PCSK9 mRNA by Quantigene, normalized to GAP-DH)
Type: cell-based, human
measurement.parameters: 30 nM siRNA
In the oligonucleotide strings, read from the 5' end, every base follows the letter of its sugar. An asterisk marks phosphorothioate; unmarked linkages are phosphodiester. Other units and linkages are bracketed, terminal groups are in braces. A string of capitals states the bases alone. d = 2'-deoxy (DNA); m = 2'-O-methyl; r = 2'-OH (RNA)
Recorded Mean percent remaining mRNA transcript at siRNA concentration/in cell type 30 nM/HepG2 for the following substances
assay.readout: Mean percent remaining mRNA transcript at siRNA concentration/in cell type 30 nM/HepG2

* AD-9577: PCSK9 siRNA (sense rCrArCrCrArArGrGrArGrGrCrArGrGrArUrUrCdT*dT; antisense rGrArArUrCrCrUrGrCrCrUrCrCrUrUrGrGrUrGdT*dT) | 33%
* AD-9579: PCSK9 siRNA (sense rArUrCrGrArGrGrArGrGrArCrUrCrCrUrCrUrGdT*dT; antisense rCrArGrArGrGrArGrUrCrCrUrCrCrUrCrGrArUdT*dT) | 113%
* AD-9605: PCSK9 siRNA (sense rUrGrGrUrGrArArGrArUrGrArGrUrGrGrCrGrAdT*dT; antisense rUrCrGrCrCrArCrUrCrArUrCrUrUrCrArCrCrAdT*dT) | 27%
* AD-9529: PCSK9 siRNA (sense rGrGrGrArUrArCrCrUrCrArCrCrArArGrArUrCdT*dT; antisense rGrArUrCrUrUrGrGrUrGrArGrGrUrArUrCrCrCdT*dT) | 60%
* AD-9739: PCSK9 siRNA (sense mCrGrArGrGrGmCrArGrGrGmUmCrAmUrGrGmUmCdT*dT; antisense rGrArCmCrArUrGrArCrCrCrUrGrCrCrCrUrCrGdT*dT) | 109%
* AD-9729: PCSK9 siRNA (sense mUmUmUmCmUrGrGrAmUrGrGmCrAmUmCmUrArGmCdT*dT; antisense rGrCmUrArGrArUrGrCmCrArUrCmCrArGrArArAdT*dT) | 56%
* AD-9681: PCSK9 siRNA (sense rGmUmCrArGrGrArGmCmCrGrGrGrAmCrGmUmCrAdT*dT; antisense rUrGrArCrGrUrCrCrCrGrGrCrUrCrCrUrGrArCdT*dT) | 55%
* AD-9675: PCSK9 siRNA (sense rGrGrGmCmCmCrAmCrArAmCrGmCmUmUmUmUrGrGdT*dT; antisense rCmCrArArArArGrCrGrUrUrGrUrGrGrGrCrCrCdT*dT) | 78%
* AD-9548: PCSK9 siRNA (sense rGrCrArGrUrCrArGrArGrCrGrCrArCrUrGrCrCdT*dT; antisense rGrGrCrArGrUrGrCrGrCrUrCrUrGrArCrUrGrCdT*dT) | 54%
* AD-9570: PCSK9 siRNA (sense rCrUrGrCrCrGrGrGrCrCrCrArCrArArCrGrCrUdT*dT; antisense rArGrCrGrUrUrGrUrGrGrGrCrCrCrGrGrCrArGdT*dT) | 42%
* AD-9573: PCSK9 siRNA (sense rArUrGrGrUrCrArCrCrGrArCrUrUrCrGrArGrAdT*dT; antisense rUrCrUrCrGrArArGrUrCrGrGrUrGrArCrCrArUdT*dT) | 36%
* AD-9585: PCSK9 siRNA (sense rCrGrGrCrArArCrUrUrCrCrGrGrGrArCrGrArUdT*dT; antisense rArUrCrGrUrCrCrCrGrGrArArGrUrUrGrCrCrGdT*dT) | 83%
* AD-9642: PCSK9 siRNA (sense mUrGmUrAmUmCmUmCmCmUrArGrAmCrAmCmCrArGdT*dT; antisense rCrUrGrGrUrGrUrCmUrArGrGrArGrAmUrAmCrAdT*dT) | 105%
* AD-9650: PCSK9 siRNA (sense rGmCmUrGrGmUrGmCmUrArGmCmCmUmUrGmCrGmUdT*dT; antisense rArCrGmCrArArGrGrCmUrArGmCrArCmCrArGrCdT*dT) | 91%
* AD-9652: PCSK9 siRNA (sense mUmCmCmCrArGmCmCrArGrGrAmUmUmCmCrGmCrGdT*dT; antisense rCrGrCrGrGrArArUrCrCrUrGrGrCrUrGrGrGrAdT*dT) | 97%
* AD-9690: PCSK9 siRNA (sense mUmCrAmUmUrGrGmUrGmCmCmUmCmCrArGmCrGrAdT*dT; antisense rUrCrGrCrUrGrGrArGrGmCrArCmCrArArUrGrAdT*dT) | 92%
* AD-9522: PCSK9 siRNA (sense rArArGrGrArGrCrArUrGrGrArArUrCrCrCrGrGdT*dT; antisense rCrCrGrGrGrArUrUrCrCrArUrGrCrUrCrCrUrUdT*dT) | 59%
* AD-9589: PCSK9 siRNA (sense rCrArCrCrGrCrUrGrCrCrGrGrCrArArCrUrUrCdT*dT; antisense rGrArArGrUrUrGrCrCrGrGrCrArGrCrGrGrUrGdT*dT) | 85%
* AD-9587: PCSK9 siRNA (sense rArCrArUrUrUrArUrCrUrUrUrUrGrGrGrUrCrUdT*dT; antisense rArGrArCrCrCrArArArArGrArUrArArArUrGrUdT*dT) | 63%
* AD-9749: PCSK9 siRNA (sense rGmUmCrArGmCmUmCmCrArGrGmCrGrGmUmCmCmUdT*dT; antisense rArGrGrArCrCrGrCrCrUrGrGrArGrCrUrGrArCdT*dT) | 105%
